system under test: aldose reductase (Bos taurus)
Construct: in the preparation of the enzyme from bovine lens; from tissue; host or cells: bovine lens
test: in vitro inhibition of aldose reductase (modified Hayman and Kinoshita procedure, enzyme from bovine lens)
Assay type: biochemical
assay setup: 10^-6 M
property label: inhibition at 1 µM (%)

Task: Report inhibition at 1 µM for O=C(O)CC1C(=O)N(Cc2ccc(Br)cc2F)C(=O)c2ccc(F)cc21 (centres unmarked) please.
Result: 91

Task: // same read-out, input: COC(=O)NC(=O)CC1C(=O)N(C)C(=O)c2cc(Cl)ccc21 (centres unmarked) [7Cl, CH3, NHCO2 CH3]
Result: 17

(a) O=C(O)CC1C(=O)N(Cc2ccc(Br)cc2F)C(=O)c2ccccc21 (centres unmarked)
(b) COC(=O)NC(=O)CC1C(=O)N(Cc2ccc(Br)cc2F)C(=O)c2ccc(F)cc21 (centres unmarked)
(c) COC(=O)NC(=O)CC1C(=O)N(C)C(=O)c2ccc(Cl)cc21 (centres unmarked) [6Cl, H, CH3, NHCO2 CH3]
Task: Ascending by inhibition at 1 µM, please: list the compounds accordingly. Kindly provide the labels arranged according to the requested ordering.
Result: b, c, a
(b: 18%, c: 26.6%, a: 91%)
